tested on: recombinant H1-HA (D18-I530), A/California/06/2009 (H1N1)pdm09 (Influenza A virus A/California/06/2009 …, UniProt C3W5S1, strain)
procedure summary: SPR
assay context: both partners purified
What pKd was measured for each of the following?
Friendly reminder that pKd comes from taking -log10 of the concentration in mol/L.

## Input Record request: pKd value, item R1a-A5 (VHH, also called R1a-A5 monovalent; source: E. coli WK6 periplasm, purified (Talon IMAC, Superdex 75 SEC)) VHH: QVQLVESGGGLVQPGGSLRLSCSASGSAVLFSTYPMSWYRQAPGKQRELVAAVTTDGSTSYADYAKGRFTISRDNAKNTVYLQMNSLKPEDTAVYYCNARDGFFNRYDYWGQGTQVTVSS
## Output 8.73

## Input Record request: pKd value, item R1a-G6 (VHH, source: E. coli WK6 periplasm, purified (Talon IMAC, Superdex 75 SEC)) VHH: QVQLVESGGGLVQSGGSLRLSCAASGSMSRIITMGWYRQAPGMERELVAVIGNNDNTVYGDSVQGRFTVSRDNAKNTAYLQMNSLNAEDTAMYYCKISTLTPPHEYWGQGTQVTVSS
## Output 8.32
